# Test system: 653999-131-R-J2-PDC complex spheroids, growth % test/control
# method.description: Anticancer human tumor 653999-131-R-J2-PDC patient-derived lung adenocarcinoma cell line growth inhibition [AhR]
# conditions.used: second compound 0.1 µM; first compound 0.000949 µM; stronger effect = lower value
measured.metric: viability, T/C (%)
API: value field is a number in %; no unit string.

# compound, viability, T/C / %
rows = [
    ("CCc1c2c(nc3ccc(O)cc13)-c1cc3c(c(=O)n1C2)COC(=O)[C@]3(O)CC + Cc1cncc(-c2nc(NCCc3c[nH]c4ccccc34)c3ncn(C(C)C)c3n2)c1", 62.3),
    ("CC(C)CC(NC(=O)C(Cc1ccccc1)NC(=O)c1cnccn1)B(O)O (stereo unspecified) + Cc1cncc(-c2nc(NCCc3c[nH]c4ccccc34)c3ncn(C(C)C)c3n2)c1", 94.5),
    ("CC(C)CC(NC(=O)C(Cc1ccccc1)NC(=O)c1cnccn1)B(O)O (stereo unspecified) + Cc1ccccc1N=Nc1ccc(NC(=O)c2ccnn2C)c(C)c1", 103),
    ("Nc1ncn(C2CC(O)C(CO)S2)c(=O)n1 (stereo unspecified) + CC(CO)NC(=O)c1cc(-c2ccc(Cl)cc2)nn(-c2cnn(C)c2)c1=O", 101),
    ("CCc1c2c(nc3ccc(O)cc13)-c1cc3c(c(=O)n1C2)COC(=O)[C@]3(O)CC + CC(CO)NC(=O)c1cc(-c2ccc(Cl)cc2)nn(-c2cnn(C)c2)c1=O", 68),
]

# get_value(readout='viability, T/C', item= CCc1c2c(nc3ccc(O)cc13)-c1cc3c(c(=O)n1C2)COC(=O)[C@]3(O)CC + Cc1ccccc1N=Nc1ccc(NC(=O)c2ccnn2C)c(C)c1 )
94.8

---

# System: 653999-131-R-J2-PDC complex spheroids, growth % test/control
# method.description: Anticancer human tumor 653999-131-R-J2-PDC cell line growth inhibition [AhR];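 further: spheroids exposed to agents for seven days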;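 on viability, T/C: 100% = DMSO vehicle control viability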
# conditions.used: second compound 0.1 µM; first compound 0.003 µM; stronger effect = lower value
measured.metric: viability, T/C (%)
API: value field is a number in %; no unit string.

# compound, viability, T/C, %
data = [
    ("CCc1c2c(nc3ccc(O)cc13)-c1cc3c(c(=O)n1C2)COC(=O)[C@]3(O)CC + CC(CO)NC(=O)c1cc(-c2ccc(Cl)cc2)nn(-c2cnn(C)c2)c1=O", 59),
]

Value wanted: viability, T/C (653999-131-R-J2-PDC complex spheroids, growth % test/control) of entry Nc1ncn(C2CC(O)C(CO)S2)c(=O)n1 (centres undefined) + CC(CO)NC(=O)c1cc(-c2ccc(Cl)cc2)nn(-c2cnn(C)c2)c1=O
117

Value wanted: viability, T/C (653999-131-R-J2-PDC complex spheroids, growth % test/control) of entry Nc1ncn(C2CC(O)C(CO)S2)c(=O)n1 (centres undefined) + Cc1ccccc1N=Nc1ccc(NC(=O)c2ccnn2C)c(C)c1
98.8

Value wanted: viability, T/C (653999-131-R-J2-PDC complex spheroids, growth % test/control) of entry CC(C)CC(NC(=O)C(Cc1ccccc1)NC(=O)c1cnccn1)B(O)O (centres undefined) + Cc1cncc(-c2nc(NCCc3c[nH]c4ccccc34)c3ncn(C(C)C)c3n2)c1
130

Value wanted: viability, T/C (653999-131-R-J2-PDC complex spheroids, growth % test/control) of entry CCc1c2c(nc3ccc(O)cc13)-c1cc3c(c(=O)n1C2)COC(=O)[C@]3(O)CC + Cc1ccccc1N=Nc1ccc(NC(=O)c2ccnn2C)c(C)c1
76.6

Value wanted: viability, T/C (653999-131-R-J2-PDC complex spheroids, growth % test/control) of entry CC(C)CC(NC(=O)C(Cc1ccccc1)NC(=O)c1cnccn1)B(O)O (centres undefined) + Cc1ccccc1N=Nc1ccc(NC(=O)c2ccnn2C)c(C)c1
117

Value wanted: viability, T/C (653999-131-R-J2-PDC complex spheroids, growth % test/control) of entry CCc1c2c(nc3ccc(O)cc13)-c1cc3c(c(=O)n1C2)COC(=O)[C@]3(O)CC + Cc1cncc(-c2nc(NCCc3c[nH]c4ccccc34)c3ncn(C(C)C)c3n2)c1
56.1

Value wanted: viability, T/C (653999-131-R-J2-PDC complex spheroids, growth % test/control) of entry Nc1ncn(C2CC(O)C(CO)S2)c(=O)n1 (centres undefined) + Cc1cncc(-c2nc(NCCc3c[nH]c4ccccc34)c3ncn(C(C)C)c3n2)c1
95.4

Value wanted: viability, T/C (653999-131-R-J2-PDC complex spheroids, growth % test/control) of entry CC(C)CC(NC(=O)C(Cc1ccccc1)NC(=O)c1cnccn1)B(O)O (centres undefined) + CC(CO)NC(=O)c1cc(-c2ccc(Cl)cc2)nn(-c2cnn(C)c2)c1=O
116

---

# Tested on: 653999-131-R-J2-PDC complex spheroids, growth % test/control
# method.description: Anticancer human tumor 653999-131-R-J2-PDC cell line growth inhibition [AhR];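 further: spheroids exposed to agents for seven days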;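 on viability, T/C: 100% = DMSO vehicle control viability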
# conditions.used: second compound 0.1 µM; first compound 0.1 µM; stronger effect = lower value
# viability, T/C per entry
API: value field is a number in %; no unit string.

# molecule, measurement.target, reported.value
measured = [
    ("Nc1ccn(C2OC(CO)C(O)C2(F)F)c(=O)n1 (stereo unspecified) + Cc1cncc(-c2nc(NCCc3c[nH]c4ccccc34)c3ncn(C(C)C)c3n2)c1", "653999-131-R-J2-PDC complex spheroids, growth % test/control", 57.9),
    ("NS(=O)(=O)OCC1CC(n2ccc3c(NC4CCc5ccccc54)ncnc32)CC1O (stereo unspecified) + Cc1cncc(-c2nc(NCCc3c[nH]c4ccccc34)c3ncn(C(C)C)c3n2)c1", "653999-131-R-J2-PDC complex spheroids, growth % test/control", 106),
    ("Nc1ccn(C2OC(CO)C(O)C2(F)F)c(=O)n1 (stereo unspecified) + Cc1ccccc1N=Nc1ccc(NC(=O)c2ccnn2C)c(C)c1", "653999-131-R-J2-PDC complex spheroids, growth % test/control", 65),
    ("CC1COCCN1c1cc(C2(S(C)(=N)=O)CC2)nc(-c2ccnc3[nH]ccc23)n1 (stereo unspecified) + Cc1cncc(-c2nc(NCCc3c[nH]c4ccccc34)c3ncn(C(C)C)c3n2)c1", "653999-131-R-J2-PDC complex spheroids, growth % test/control", 102),
    ("COc1cccc2c1C(=O)c1c(O)c3c(c(O)c1C2=O)CC(O)(C(=O)CO)CC3OC1CC(N)C(O)C(C)O1 (stereo unspecified) + Cc1ccccc1N=Nc1ccc(NC(=O)c2ccnn2C)c(C)c1", "653999-131-R-J2-PDC complex spheroids, growth % test/control", 44.6),
]

We now examine a further molecule.
# get_value(readout='viability, T/C', item= COc1cccc2c1C(=O)c1c(O)c3c(c(O)c1C2=O)CC(O)(C(=O)CO)CC3OC1CC(N)C(O)C(C)O1 (stereo unspecified) + CC(CO)NC(=O)c1cc(-c2ccc(Cl)cc2)nn(-c2cnn(C)c2)c1=O )
53

---

# System: 653999-131-R-J2-PDC complex spheroids, growth % test/control
# method.description: Anticancer human tumor 653999-131-R-J2-PDC cell line growth inhibition [AhR];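 further: spheroids exposed to agents for seven days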
# conditions.used: curve of first compound; second compound 0.1 µM
# IC50 per entry
API: value field is a number in nM; no unit string.

# compound, measurement.target, units.text, IC50
data = [
    ("Nc1ccn(C2OC(CO)C(O)C2(F)F)c(=O)n1 (stereo not drawn) + Cc1ccccc1N=Nc1ccc(NC(=O)c2ccnn2C)c(C)c1", "653999-131-R-J2-PDC complex spheroids, growth % test/control", "nM", 532),
]

# get_value(readout='IC50', item= CCc1c2c(nc3ccc(O)cc13)-c1cc3c(c(=O)n1C2)COC(=O)[C@]3(O)CC + CC(CO)NC(=O)c1cc(-c2ccc(Cl)cc2)nn(-c2cnn(C)c2)c1=O )
7.43

---

# viability, T/C per entry
# Test system: 653999-131-R-J2-PDC complex spheroids, growth % test/control
# method.description: Anticancer human tumor 653999-131-R-J2-PDC cell line growth inhibition [AhR];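 further: spheroids exposed to agents for seven days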;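 on viability, T/C: 100% = DMSO vehicle control viability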
# conditions.used: second compound 10 µM; first compound 0.01 µM; stronger effect = lower value
API: value field is a number in %; no unit string.

# molecule, measured.metric, reported.value
measured = [
    ("Nc1ncn(C2CC(O)C(CO)O2)c(=O)n1 (stereo not drawn) + CC(CO)NC(=O)c1cc(-c2ccc(Cl)cc2)nn(-c2cnn(C)c2)c1=O", "viability, T/C", 116),
    ("CC1COCCN1c1cc(-c2ccnn2C)c2ccnc(-c3ccn[nH]3)c2n1 (stereo not drawn) + Cc1cncc(-c2nc(NCCc3c[nH]c4ccccc34)c3ncn(C(C)C)c3n2)c1", "viability, T/C", 46.9),
]

We now examine a further molecule.
# get_value(readout='viability, T/C', item= Cn1ncnc1C1c2n[nH]c(=O)c3cc(F)cc(c23)NC1c1ccc(F)cc1 (stereo not drawn) + Cc1ccccc1N=Nc1ccc(NC(=O)c2ccnn2C)c(C)c1 )
95
